# target_of_assay: Ubiquitin carboxyl-terminal hydrolase 7 (Homo sapiens, UniProt Q93009)
# Sequence (Q93009 whole entry): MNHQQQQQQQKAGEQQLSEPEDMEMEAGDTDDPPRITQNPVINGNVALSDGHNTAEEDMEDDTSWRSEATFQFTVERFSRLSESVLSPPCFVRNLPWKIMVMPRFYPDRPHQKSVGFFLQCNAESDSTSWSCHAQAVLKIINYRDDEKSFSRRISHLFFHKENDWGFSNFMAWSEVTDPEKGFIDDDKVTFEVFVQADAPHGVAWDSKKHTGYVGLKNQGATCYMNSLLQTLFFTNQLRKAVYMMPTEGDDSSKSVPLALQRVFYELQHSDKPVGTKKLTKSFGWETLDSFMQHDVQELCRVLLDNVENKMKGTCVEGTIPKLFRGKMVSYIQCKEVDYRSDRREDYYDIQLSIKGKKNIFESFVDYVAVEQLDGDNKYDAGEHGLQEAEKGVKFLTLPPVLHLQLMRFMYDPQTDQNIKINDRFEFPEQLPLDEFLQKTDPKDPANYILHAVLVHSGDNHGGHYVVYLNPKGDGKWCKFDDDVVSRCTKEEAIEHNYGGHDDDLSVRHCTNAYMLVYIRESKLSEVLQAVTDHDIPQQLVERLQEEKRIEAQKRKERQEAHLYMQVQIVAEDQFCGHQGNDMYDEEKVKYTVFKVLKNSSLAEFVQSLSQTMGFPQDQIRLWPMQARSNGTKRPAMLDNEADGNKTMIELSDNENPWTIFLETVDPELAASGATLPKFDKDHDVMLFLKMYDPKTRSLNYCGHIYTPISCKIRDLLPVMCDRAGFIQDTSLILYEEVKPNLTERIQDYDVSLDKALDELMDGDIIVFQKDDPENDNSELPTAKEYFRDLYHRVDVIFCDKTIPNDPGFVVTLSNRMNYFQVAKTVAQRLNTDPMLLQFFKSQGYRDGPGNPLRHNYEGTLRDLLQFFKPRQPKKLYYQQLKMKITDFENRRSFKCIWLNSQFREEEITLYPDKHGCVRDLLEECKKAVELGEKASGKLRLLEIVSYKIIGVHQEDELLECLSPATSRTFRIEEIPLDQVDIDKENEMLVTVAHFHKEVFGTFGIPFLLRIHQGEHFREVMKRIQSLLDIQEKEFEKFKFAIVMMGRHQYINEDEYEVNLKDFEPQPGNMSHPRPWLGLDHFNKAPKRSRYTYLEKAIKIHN
# assay_notes: Inhibition of recombinant full length USP7 (unknown origin) using ubiquintin-rhodamine as substrate preincubated for 30 mins followed by substrate addition measured after 1 hr by fluorescence-based Envision plate reader assay
pIC50: −log10 of the molar value.
Decide by pIC50: equal to or exceeding 8 means t, less means f.

Record excerpt, results attached:
compound	category
Nc1cc(-c2cc(Cl)cc3c2OC(C(=O)N2CCNCC2)C3)ccn1 (racemic)	f
Cc1cc(Cl)cc(-c2ccnc3cc(CN4C(=O)C5CC5C4=O)sc23)c1C[C@@H]1CNC[C@@H](C)O1 (mixture of isomers)	t
Cc1cc(Cl)cc(-c2ccnc3cc(CN4C(=O)C5C(C4=O)C5(C)C)sc23)c1C[C@@H]1CNCCO1 (stereo partly specified)	t
Cc1cc(Cl)cc(-c2ccnc3cc(CN4C(=O)CCC4=O)sc23)c1OCC1(F)CNC1	t
Cc1cc(Cl)cc(-c2ccnc3cc(CN4C(=O)CCC4=O)sc23)c1O[C@H]1C[C@H](N)C1	t
O=C([C@H]1Cc2cc(Cl)cc(-c3ccnc4[nH]ccc34)c2O1)N1CCNCC1	f
Cc1cc(Cl)cc(-c2ccnc3cc(CN4C(=O)CCC4=O)sc23)c1O[C@H]1CCCNC1	t
Cc1cc(Cl)cc(-c2ccnc3cc(CN4C(=O)C5CC5C4=O)sc23)c1O[C@@H]1CCNC[C@@H]1C (stereo partly specified)	t

Asked: Determine whether this compound has pIC50 no lower than 8: O=C(C1Cc2cc(Cl)cc(-c3ccnc4[nH]ccc34)c2O1)N1CCNCC1 (racemic)
Given back: f

Asked: Please answer likewise for Cc1cc(Cl)cc(-c2ccnc3cc(Cn4c(=O)ccn(CC(F)(F)F)c4=O)sc23)c1O[C@@H]1CCNC[C@@H]1C
Given back: t
